Assay: Pharmacokinetics (PK) study: drug plasma concentration in rats by LC-MS/MS
Assay type: in vivo, rat
Conditions: rat, in vivo; 100 mg/kg i.p., 30 min, geomean (% coefficient of variation), n = 3
assay metric: concentration at 30 min (µg/mL)
Note: unit µg/mL is implicit; provide only the numeric part.

[Q] Tell me the measured concentration at 30 min of CC(C)C[C@H](CN)CC(=O)O [Pregabalin, pregabalin] , please.
[A] 99.3

* * *

Assay: Pharmacokinetics (PK) study: drug plasma concentration in rats by LC-MS/MS
Assay type: in vivo, rat
Details: rat, in vivo; 3 mg/kg i.p., 30 min, geomean (% coefficient of variation), n = 3
assay metric: concentration at 30 min

[Q] Param item = CC(C)C[C@H](CN)CC(=O)O ; retrieve measured concentration at 30 min.
[A] 3290 ng/mL
